Test system: HT-29 cells
Experiment: MTT cytotoxicity assay, reference compounds
Type: cell-based
Details: Homo sapiens, HT-29, 24 h, read-out: Toxicity (IC50 value)
measured_endpoint: pIC50
Answers are plain numbers, as −log10 of the molar value.

Can you share its pIC50? I mean this molecule: Oc1ccccc1
2.21

----------
Test system: HCT 116 cells
Test: MTT cytotoxicity assay, reference compounds
Type: cell-based
Conditions: Homo sapiens, HCT-116, 4 h, read-out: Toxicity (IC50 value)
measured_endpoint: IC50
For clarity, give the value followed by its unit.

Param readout= IC50; system= HCT 116 cells; entry= Oc1ccccc1 [Phenol] ; returns value.
23.8 mM

The origin of these recorded values is paper PMC7551400.
